target: human CD1a expressed on cells (human, UniProt P06126 17-327); assay: cell-based or functional assay
Sequence (P06126 17-327): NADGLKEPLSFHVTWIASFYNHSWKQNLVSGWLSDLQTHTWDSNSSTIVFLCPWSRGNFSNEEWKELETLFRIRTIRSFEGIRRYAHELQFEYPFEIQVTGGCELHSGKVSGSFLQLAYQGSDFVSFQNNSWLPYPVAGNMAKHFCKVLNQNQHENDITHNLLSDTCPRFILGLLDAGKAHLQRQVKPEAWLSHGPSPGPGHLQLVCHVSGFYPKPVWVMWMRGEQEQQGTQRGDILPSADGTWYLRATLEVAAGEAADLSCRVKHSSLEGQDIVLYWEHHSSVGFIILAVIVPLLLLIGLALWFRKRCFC
QUANTITY: Inhibition of CD69 expression, IC50 (pM)
Report as a plain number; the unit pM is understood.

Study these solved cases before continuing.
BINDER: Ab572 (antibody, human IgG1, kappa, V domains shown, Optimized variant of Ab138; human IgG1 effector null / kappa; HC with or without terminal lysine) VH: EVQLVESGGGLVQPGGSLRLSCAASGFTFTDHYMTWVRQAPGKGLEWVAFIRNKAGGYTTESNPAVKGRFTISRDNAKNSLYLQMNSLRAEDTAVYYCARETTGIPTGWFAYWGQGTLVTVSS VL: DIQMTQSPSSLSASVGDRVTITCLASEDIYFDLAWYQQKPGKAPKLLIYGGDRLKEGVPSRFSGSGSGTDYTLTISSLQPEDFATYYCQQSESYPYTFGQGTKLEIKR
UNITS_TEXT: pM
Inhibition of CD69 expression, IC50: 850
--
BINDER: Ab514 (antibody, human IgG1, kappa, V domains shown, Optimized variant of Ab138; human IgG1 effector null / kappa; HC with or without terminal lysine) VH: EVQLVESGGGLVQPGGSLRLSCAASGFTFTDHYMHWVRQAPGKGLEWVAFIRNSAGGYTTESNPAVKGRFTISRDNAKNSLYLQMNSLRAEDTAVYYCARETTRIPTGWFAYWGQGTLVTVSS VL: DIQMTQSPSSLSASVGDRVTITCLASEDIYFDLAWYQQKPGKAPKLLIYGASTPKDGVPSRFSGSGSGTDYTLTISSLQPEDFATYYCQQSEKYPYTFGQGTKLEIKR
UNITS_TEXT: pM
Inhibition of CD69 expression, IC50: 990

Annotate the binder Ab491 (antibody, human IgG1, kappa, V domains shown, Optimized variant of Ab138; human IgG1 effector null / kappa; HC with or without terminal lysine) VH: EVQLVESGGGLVQPGGSLRLSCAASGFTFTDHYMTWVRQAPGKGLEWVAFIRNKANGYTTESNPAVKGRFTISRDNAKNSLYLQMNSLRAEDTAVYYCARETTGIPTGWFAYWGQGTLVTVSS VL: DIQMTQSPSSLSASVGDRVTITCLASEDIYFDLAWYQQKPGKAPKLLIYGGDRLKEGVPSRFSGSGSGTDYTLTISSLQPEDFATYYCQQSYSYPYTFGQGTKLEIKR with its measured Inhibition of CD69 expression, IC50.
1180
